- System: SARS-CoV-2 (strain USA-WA1/2020)
- assay-method-text: microbe, parasite or virus in culture
- Assay type: cell-based
- setup-conditions: Severe acute respiratory syndrome coronavirus 2; HeLa-ACE2 cells; read-out: Antiviral CoV-2 EC50
endpoint: log10 EC50 (log10 of the value in nM)
Field: value | Transform: log10 | Quantity: EC50 | Unit: nM

Known log10 EC50 results, listed for orientation:
compound="N#Cc1cc(C(=O)N2CCOCC2)c(N2CC[C@@H](NC(=O)c3c(F)c(=O)[nH]c4ccccc34)C2)c(C(F)(F)F)c1 [Compound 6]" system_name="SARS-CoV-2 (strain USA-WA1/2020)" quantitative_readout=1.34
compound="O=C(N[C@@H]1CCN(c2c(C(=O)N3CCOCC3)cc(F)cc2C2CC2)C1)c1cc(=O)[nH]c2c(F)cccc12 [Compound 46]" system_name="SARS-CoV-2 (strain USA-WA1/2020)" quantitative_readout=1.32
compound="COc1cccc2[nH]c(=O)cc(C(=O)N[C@@H]3CCN(c4c(C(=O)N5CCOCC5)cc(F)cc4C4CC4)C3)c12 [Compound 79]" system_name="SARS-CoV-2 (strain USA-WA1/2020)" quantitative_readout=1.59
compound="O=C(N[C@@H]1CCN(c2c(C(=O)N3CCOCC3)cc(Br)cc2C(F)(F)F)C1)c1c(F)c(=O)[nH]c2c(F)c(F)ccc12 [Compound 50]" system_name="SARS-CoV-2 (strain USA-WA1/2020)" quantitative_readout=1.06
compound="CN1CCN(C(=O)c2cc(C#N)cc(C(F)(F)F)c2N2CC[C@@H](NC(=O)c3cc(=O)[nH]c4c(F)cccc34)C2)CC1 [Compound 14]" system_name="SARS-CoV-2 (strain USA-WA1/2020)" quantitative_readout=1.11

Batch request: log10 EC50 per item, same order as input.
1. Cc1[nH]c(=O)cc(C(=O)N[C@@H]2CCN(c3c(C(=O)N4CCOCC4)cc(Br)cc3C(F)(F)F)C2)c1F [Compound 59]
2. N#Cc1cc(C(=O)N2CCNC(=O)C2)c(N2CC[C@@H](NC(=O)c3cc(=O)[nH]c4c(F)cccc34)C2)c(C(F)(F)F)c1 [Compound 27]

1: 1.98; 2: 3.45

Batch request: log10 EC50 per item, same order as input.
1. Cc1cc(C(=O)N2CCOCC2)c(N2C[C@H](NC(=O)c3cc(=O)[nH]c4c(F)cc(F)cc34)CC2=O)c(C2CC2)c1 [Compound 74]
2. N#Cc1cc(C(=O)N2CCOCC2)c(N2CC[C@@H](NC(=O)c3c(F)c(=O)[nH]c4c(F)cccc34)C2)c(C(F)(F)F)c1 [Compound 5]
3. COc1cccc2[nH]c(=O)cc(C(=O)N[C@@H]3CCN(c4c(C(=O)N5CCOCC5)cc(C)cc4C4CC4)C3)c12 [Compound 81]
4. CO[C@H]1CN(c2c(C(=O)N3CCOCC3)cc(C#N)cc2C(F)(F)F)C[C@@H]1NC(=O)c1cc(=O)[nH]c2c(F)cccc12 [Compound 32]
5. Cc1cc(C(=O)N2CCOCC2)c(N2CC[C@@H](NC(=O)c3cc(C)[nH]c(=O)c3F)C2)c(C2CC2)c1 [Compound 60]
6. Cc1cc(C(=O)N[C@@H]2CCN(c3c(C(=O)N4CCOCC4)cc(Br)cc3C(F)(F)F)C2)c(F)c(=O)[nH]1 [Compound 3]

1. 1.72
2. 1.01
3. 1.26
4. 1.27
5. 2.26
6. 1.31
